Readings of Solvent solubility PGMEA for the listed compounds
# assayName: Solvent solubility (butyl acetate, toluene or PGMEA)
# Format: physicochemical
# conditionSummary: PGMEA, 25° C.

Here are 2 compounds together with their reported answers.
compound	Solvent solubility PGMEA
CCCCC(CC)C(=O)Oc1cc2c3c(cccc3c1)C(=O)N(OS(=O)(=O)C(F)(F)F)C2=O (stereo not drawn)	>30 wt %
O=C1c2cccc3c(C(F)(F)C(F)(F)C(F)(F)C(F)(F)C(F)(F)C(F)(F)C(F)(F)C(F)(F)F)ccc(c23)C(=O)N1OS(=O)(=O)C(F)(F)F	>30 wt %

Okay, next one:
GET /values?readout=Solvent solubility PGMEA&item= CCCC(=O)Oc1cc2c3c(cccc3c1)C(=O)N(OS(=O)(=O)C(F)(F)F)C2=O >30 wt %

----------
# assayName: Thermal decomposition temperature (TG/DTA, 2% weight reduction)
# Type: physicochemical
# conditionSummary: point of 2% weight reduction; 10° C./minute from 30° C. to 500° C.; nitrogen atmosphere
Readings of Thermal decomposition temperature for the listed molecules
I only need the number, in °C, no unit after it.

Here are 3 molecules together with their reported answers.
sampleSmiles	Thermal decomposition temperature [°C]
O=C1c2cccc3c(Cl)ccc(c23)C(=O)N1OS(=O)(=O)c1c(F)c(F)c(F)c(F)c1F	225
CCCC(=O)Oc1cc2c3c(cccc3c1)C(=O)N(OS(=O)(=O)C(F)(F)F)C2=O	234
O=C(Cc1ccccc1)c1ccc2c3c(cccc13)C(=O)N(OS(=O)(=O)c1c(F)c(F)c(F)c(F)c1F)C2=O	242

Okay, next one:
GET /values?readout=Thermal decomposition temperature&item= CC(C)(C)c1cc2c3c(cc(C(C)(C)C)cc3c1)C(=O)N(OS(=O)(=O)c1c(F)c(F)c(F)c(F)c1F)C2=O 245

----------
# assayName: Solvent solubility (butyl acetate, toluene or PGMEA)
# Type: physicochemical
# conditionSummary: butyl acetate, 25° C.
Readings of Solvent solubility Butyl acetate for the listed molecules

Here are 5 molecules together with their reported answers.
molecule	measured
O=C1c2cccc3c(Cl)ccc(c23)C(=O)N1OS(=O)(=O)c1c(F)c(F)c(F)c(F)c1F	3 wt %
c1ccc(Sc2ccc([S+](c3ccccc3)c3ccccc3)cc2)cc1 [A′-2, reference compound]	<0.5 wt %
CC1(C)C2CCC1(CS(=O)(=O)ON1C(=O)c3cccc4cccc(c34)C1=O)C(=O)C2 (stereo not shown) [A′-5, reference compound]	<0.5 wt %
CC1(C)C2CCC1(CS(=O)(=O)ON1C(=O)c3cccc4c(C(F)(F)C(F)(F)C(F)(F)C(F)(F)C(F)(F)C(F)(F)C(F)(F)C(F)(F)F)ccc(c34)C1=O)C(=O)C2 (stereo not shown)	9.5 wt %
CCCOc1ccc2c3c(cccc13)C(=O)N(OS(=O)(=O)c1c(F)c(F)c(F)c(F)c1F)C2=O	3.5 wt %

GET /values?readout=Solvent solubility Butyl acetate&item= O=C1c2cccc3c(OCC(F)(F)C(F)F)ccc(c23)C(=O)N1OS(=O)(=O)c1c(F)c(F)c(F)c(F)c1F 7.5 wt %

GET /values?readout=Solvent solubility Butyl acetate&item= COc1cc2c3c(cccc3c1)C(=O)N(OS(=O)(=O)C[C@]13CCC(CC1=O)C3(C)C)C2=O 2 wt %

GET /values?readout=Solvent solubility Butyl acetate&item= CC1(C)C2CCC1(CS(=O)(=O)ON1C(=O)c3cccc4c(OCC(F)(F)C(F)F)ccc(c34)C1=O)C(=O)C2 (stereo not shown) 3 wt %
